- System Name: μ-opioid receptor (Homo sapiens, UniProt P35372)
- Sequence (P35372 whole entry): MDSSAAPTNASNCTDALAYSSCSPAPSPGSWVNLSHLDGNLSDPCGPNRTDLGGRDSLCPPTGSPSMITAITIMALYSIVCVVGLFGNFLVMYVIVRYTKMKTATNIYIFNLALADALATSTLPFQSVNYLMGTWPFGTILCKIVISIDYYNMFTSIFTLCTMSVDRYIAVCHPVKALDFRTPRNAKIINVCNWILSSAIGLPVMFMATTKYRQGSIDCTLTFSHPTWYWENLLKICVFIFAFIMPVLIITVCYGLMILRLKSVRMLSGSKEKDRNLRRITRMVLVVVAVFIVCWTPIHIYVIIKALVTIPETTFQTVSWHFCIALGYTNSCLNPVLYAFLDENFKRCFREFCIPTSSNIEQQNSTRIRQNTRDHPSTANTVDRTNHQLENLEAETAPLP
- Condition Details: read-out: Ki, μ

{"columns": ["Molecule", "Result Units", "Ki"],
 "data": [
  ["Oc1cccc([C@@]23CCC[C@@H](C2)N(C[C@H]2C[C@H]2c2ccccc2)CC3)c1 [(+)−32]", "nM", 76],
  ["Oc1cccc([C@]23CCC[C@H](C2)N(C[C@H]2C[C@H]2c2ccccc2)CC3)c1 [(+)−31]", "nM", 459],
  ["Oc1cccc([C@@]23CCC[C@@H](C2)N(C[C@H]2C[C@@H]2c2ccccc2)CC3)c1 [(+)−30]", "nM", 16],
  ["Oc1cccc([C@@]23CCC[C@@H](C2)N(C[C@@H]2C[C@H]2c2ccccc2)CC3)c1 [(−)−29]", "nM", 47],
  ["Oc1cccc([C@]23CCC[C@H](C2)N(C[C@H]2C[C@@H]2c2ccccc2)CC3)c1 [(+)−29]", "nM", 3],
  ["Oc1cccc([C@@]23CCC[C@@H](C2)N(C[C@@H]2C[C@@H]2c2ccccc2)CC3)c1 [(−)−31]", "nM", 265],
  ["Oc1cccc([C@]23CCC[C@H](C2)N(C[C@@H]2C[C@H]2c2ccccc2)CC3)c1 [(−)−30]", "nM", 4],
  ["Oc1cccc([C@]23CCC[C@H](C2)N(C[C@@H]2C[C@@H]2c2ccccc2)CC3)c1 [(−)−32]", "nM", 11]
]}
